The measurements presented in this section are drawn from ChEMBL document CHEMBL1123986.

- Tested on: Escherichia coli
- assay procedure: Minimum inhibitory concentration against Escherichia coli
- Type: functional
readout name: MIC (µg/mL)
Return type: number; implicit unit µg/mL.

For O=C(Cc1ccc(F)cc1)N[C@@H]1C(=O)N2C(C(=O)O)=C(Cl)CS[C@H]12 the molecule record lists MIC as 32

Lookup result for O=C(Cc1csc2ccc(Cl)cc12)N[C@@H]1C(=O)N2C(C(=O)O)=C(Cl)CS[C@H]12 ; measured MIC: 128

For this molecule ( O=C(Cc1csc2ccc(Cl)cc12)N[C@@H]1C(=O)N2C(C(=O)O)=CCS[C@H]12 ), measured MIC is 128

* * *

- Test system: Streptococcus pyogenes
- assay procedure: Minimum inhibitory concentration against Streptococcus pyogenes
- Assay type: functional
Simple rule here: MIC less than 0.5 µg/mL is y, otherwise n.

[Q] Determine if O=C(COc1ccc([N+](=O)[O-])cc1)N[C@@H]1C(=O)N2C(C(=O)O)=C(Cl)CS[C@H]12 shows MIC strictly lower than 0.5 µg/mL.
[A] y

[Q] is_below(MIC, 0.5 µg/mL) for Nc1n[nH]c(SCC(=O)N[C@@H]2C(=O)N3C(C(=O)O)=C(Cl)CS[C@H]23)n1 ?
[A] n

[Q] For Nc1nc(CC(=O)N[C@@H]2C(=O)N3C(C(=O)O)=C(Cl)CS[C@H]23)c(-c2ccccc2)s1 , is the recorded MIC below the cut-off of 0.5 µg/mL?
[A] y

[Q] Is it true that MIC reported for O=C(Cc1ccc(F)cc1)N[C@@H]1C(=O)N2C(C(=O)O)=C(Cl)CS[C@H]12 is less than 0.5 µg/mL?
[A] y

[Q] Could you please tell me whether MIC recorded for O=C(Cc1noc(C(Cl)(Cl)Cl)n1)N[C@@H]1C(=O)N2C(C(=O)O)=C(Cl)CS[C@H]12 is less than 0.5 µg/mL?
[A] y

[Q] Quick check: does COC1=C(C(=O)O)N2C(=O)[C@@H](NC(=O)Cc3noc(C(Cl)(Cl)Cl)n3)[C@H]2SC1 have MIC under 0.5 µg/mL?
[A] n

[Q] # TODO verify MIC < 0.5 µg/mL strictly for this compound: O=C(COc1ccc(Cl)cc1)N[C@@H]1C(=O)N2C(C(=O)O)=C(Cl)CS[C@H]12
[A] y

* * *

- Tested on: Mus musculus
- assay procedure: Effective dose administered subcutaneously (sc) to 19-21-g random sex ICR mice at 1 hr and 5 hr intervals after intraperitoneal administration of Streptococcus pyogenes
- Type: functional
What ED50 was measured for each of the following?
Provide only the numeric value, understood in mg/kg.

The molecule O=C(CSc1cc(Cl)ccc1Cl)N[C@@H]1C(=O)N2C(C(=O)O)=C(Cl)CS[C@H]12 showed ED50 equal to 2.8

For this molecule ( Nc1nc2cc(CC(=O)N[C@@H]3C(=O)N4C(C(=O)O)=C(Cl)CS[C@H]34)ccc2s1 ), measured ED50 is 0.9

* * *

Give measured MIC for each item. Keep answers brief.
- Tested on: Escherichia coli
- assay procedure: Minimum inhibitory concentration against Escherichia coli
- Format: functional
Please state the figure in µg/mL; there is no need to write the unit.

In plain terms, O=C(CSc1nccs1)N[C@@H]1C(=O)N2C(C(=O)O)=C(Cl)CS[C@H]12 has a documented MIC of 32

Noted for Nc1n[nH]c(SCC(=O)N[C@@H]2C(=O)N3C(C(=O)O)=C(Cl)CS[C@H]23)n1 : its MIC reads 16
